systemName: human A2b adenosine receptor (Homo sapiens (Human))
assayName: A2b radioligand filtration binding assay (tritiated proprietary A2b antagonist, HEK293 membranes)
experimentalSetup: unstarred values: radioligand binding
Binning rule for recorded IC50: one = under 60 nM, two = from 60 nM up to 400 nM, three = 400 nM and over

compound	labelClass
COc1ccc2c(c1)nc(N)n1nc([C@@H]3CCCN(c4cnn([C@H](C)C(C)(C)O)c4)C3)nc21 [Example 185A]	two
COc1cccc2c1nc(N)n1nc([C@@H]3CCCN(c4nccn4C)C3)nc21	three
COc1cccc2c1nc(N)n1nc([C@@H]3CCCN(c4ncccn4)C3)nc21	three
COc1ccc2c(c1)nc(N)n1nc([C@@H]3C[C@H](C)CN(c4cnn(CC(C)(C)O)c4)C3)nc21 (single isomer, unassigned) [Example 195D]	two
COc1cccc2c1nc(N)n1nc([C@@H]3CCCN(c4cnn(C)c4)C3)nc21	one
COc1cccc2c1nc(N)n1nc([C@H]3CCC4CCC3N4c3cnn(C)c3)nc21 (mixture of isomers) [Example 130A]	three
COc1cccc2c1nc(N)n1nc([C@@H]3CCCN(c4cc(C)c(=O)n(C)c4)C3)nc21	two
COc1cccc2c1nc(N)n1nc([C@H]3CC[C@H](C)N(c4cn(CC(C)(C)O)nc4C)C3)nc21 [Example 145B]	one
COc1cccc2c1nc(N)n1nc([C@@H]3CCCN(c4cnn(C5CCCC5(C)O)c4)C3)nc21 (single isomer, unassigned) [Example 59B]	one
COc1ccc2c(c1)nc(N)n1nc([C@@H]3CCCN(c4cnn(CC(F)(F)F)c4)C3)nc21	one
COc1cccc2c1nc(N)n1nc([C@@H]3CCCN(c4cnn([C@H]5CCN(C)C5)c4)C3)nc21	two
COc1cccc2c1nc(N)n1nc(C3CCCC(c4cnn(CC(C)(C)O)c4)C3)nc21 (single isomer, unassigned)	three
COc1ccc2c(c1)nc(N)n1nc([C@H]3C[C@@H](F)CN(c4cnn(CC(C)(C)O)c4)C3)nc21 [Example 196A]	three
COc1cccc2c1nc(N)n1nc([C@@H]3CCCN(c4nn(CC(C)(C)O)cc4C(F)(F)F)C3)nc21	three
COc1cccc2c1nc(N)n1nc([C@@H]3CCCN(c4cc(C)n(C)n4)C3)nc21	one
COc1ccc2c(c1)nc(N)n1nc(C3CCCCN(c4cnn(CC(C)(C)O)c4)C3)nc21 (centres unmarked)	two
COc1cccc2c1nc(N)n1nc([C@@H]3CCCN(c4cnn(C5CS(=O)(=O)C5)c4)C3)nc21	two
COc1cccc2c1nc(N)n1nc([C@@H]3CCCN(c4cnn(C5CCOC5)c4)C3)nc21 (single isomer, unassigned) [Example 57A]	two
COc1cccc2c1nc(N)n1nc([C@@H]3CCO[C@H](c4cnn(C)c4)C3)nc21 [Example 139D]	three
COc1ccc2c(c1)nc(N)n1nc([C@@H]3CCCN(c4ccc(OC(C)C)nc4)C3)nc21	one
COc1cccc2c1nc(N)n1nc([C@@H]3CCCN(c4cnn(CC(F)(F)F)c4)C3)nc21	one
COc1cccc2c1nc(N)n1nc([C@@H]3CCCN(c4cn(C)nn4)C3)nc21	one
Cc1ccc2c(nc(N)n3nc(C4CCCN(c5cnn(C)c5)C4)nc23)c1C (single isomer, unassigned)	two
COc1cccc2c1nc(N)n1nc([C@@H]3CCCN(c4ncn(CC(C)(C)O)n4)C3)nc21	two
C[C@H]1CC[C@@H](c2nc3c4ccc(C(F)F)cc4nc(N)n3n2)CN1c1cnn(CC(C)(C)O)c1	one
COc1cccc2c1nc(N)n1nc([C@@H]3CCCN(c4cn(CC(C)(C)O)nc4C(F)(F)F)C3)nc21	two
COc1ccc2c(c1)nc(N)n1nc([C@@H]3CCCN(c4cnc(OC(F)F)c(C)c4)C3)nc21	three
C[C@H]1CC[C@@H](c2nc3c4ccc(Br)cc4nc(N)n3n2)CN1c1cnn(CC(C)(C)O)c1 (single isomer, unassigned)	one
COc1cccc2c1nc(N)n1nc([C@@H]3CCCN(c4cn(CC(C)(C)O)nc4C(F)F)C3)nc21	two

----------
systemName: human A2a adenosine receptor (Homo sapiens (Human))
assayName: A2a receptor affinity radioligand binding assay ([3H] SCH58261, membranes from HEK293 or CHO cells)
experimentalSetup: unstarred values: radioligand binding
Response field label takes true when IC50 is strictly below 1 nM and false in all other cases.

molecule	labelClass
COc1cccc2c1nc(N)n1nc([C@@H]3CCCN(c4cnn5c(C)cccc45)C3)nc21	false
COc1ccc2c(c1)nc(N)n1nc([C@H]3C[C@@H](F)CN(c4cn(CC(C)(C)O)nc4C)C3)nc21 [Example 197A]	false
Cn1cc(N2CCCC(c3nc4c5ccc(F)cc5nc(N)n4n3)C2)cn1 (single isomer, unassigned)	false
COc1cccc2c1nc(N)n1nc([C@@H]3CCN(c4cnn(CC(F)(F)F)c4)C3)nc21	false
COc1cccc2c1nc(N)n1nc([C@@H]3CCCN(c4cn(CC(C)(C)O)nc4C(F)(F)F)C3)nc21	true
COc1cccc2c1nc(N)n1nc(C3CC(F)CN(c4cnn(CC(C)(C)O)c4C)C3)nc21 (stereo not shown)	false
COc1ccc2c(c1)nc(N)n1nc([C@@H]3CCCN(c4cnn(CC(C)(C)O)c4C)C3)nc21	true

----------
systemName: human A2a adenosine receptor (Homo sapiens (Human), UniProt P29274)
Sequence (P29274 whole entry): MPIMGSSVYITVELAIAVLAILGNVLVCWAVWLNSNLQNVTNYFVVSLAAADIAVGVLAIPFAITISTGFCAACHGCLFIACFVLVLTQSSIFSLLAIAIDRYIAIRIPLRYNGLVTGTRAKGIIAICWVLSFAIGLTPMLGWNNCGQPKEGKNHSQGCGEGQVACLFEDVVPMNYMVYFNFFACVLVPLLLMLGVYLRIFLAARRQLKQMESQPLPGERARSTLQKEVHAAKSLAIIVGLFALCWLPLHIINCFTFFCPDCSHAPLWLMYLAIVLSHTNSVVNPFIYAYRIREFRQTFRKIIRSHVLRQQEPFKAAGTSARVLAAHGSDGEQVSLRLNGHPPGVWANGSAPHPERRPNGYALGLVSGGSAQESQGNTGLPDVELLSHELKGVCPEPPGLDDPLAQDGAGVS
assayName: A2a receptor affinity radioligand binding assay ([3H] SCH58261, membranes from HEK293 or CHO cells)
experimentalSetup: unstarred values: radioligand binding
pIC50: −log10 of the molar value.
Tick 1 if pIC50 is 8 or greater. Tick 0 if pIC50 is less than 8.

molecule	labelClass
CCn1ncc(N2CCC[C@@H](c3nc4c5cccc(OC)c5nc(N)n4n3)C2)c1C	1
COc1cccc2c1nc(N)n1nc([C@@H]3CCCN(c4cnc(C5CC5)n4C)C3)nc21	1
COc1cccc2c1nc(N)n1nc(C3CCCN(c4cnn(C5CC5)c4)C3C)nc21 (centres unmarked)	0
COc1cc(F)c2c(c1)nc(N)n1nc([C@@H]3CC[C@H](C)N(c4cnn(CC(C)(C)O)c4)C3)nc21	1
COc1cccc2c1nc(N)n1nc([C@@H]3CCCN(c4cnn([C@H]5CCCC[C@H]5O)c4)C3)nc21	1
COc1ccc2c(c1)nc(N)n1nc([C@@H]3CCCN(c4cn([C@@H](C)C(C)(C)O)nc4C)C3)nc21 [Example 186B]	1

----------
systemName: human A2b adenosine receptor (Homo sapiens (Human), UniProt P29275)
Sequence (P29275 whole entry): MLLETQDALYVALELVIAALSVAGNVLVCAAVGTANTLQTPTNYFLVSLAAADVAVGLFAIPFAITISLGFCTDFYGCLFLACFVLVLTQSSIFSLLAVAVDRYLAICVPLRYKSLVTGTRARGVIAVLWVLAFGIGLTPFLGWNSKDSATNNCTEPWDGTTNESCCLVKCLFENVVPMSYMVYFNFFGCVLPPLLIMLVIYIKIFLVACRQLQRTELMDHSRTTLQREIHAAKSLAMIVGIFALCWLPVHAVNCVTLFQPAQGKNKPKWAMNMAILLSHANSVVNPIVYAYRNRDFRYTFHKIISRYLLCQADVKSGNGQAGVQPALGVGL
assayName: A2B antagonism in cAMP cell-based assay (LANCE cAMP, HEK293 cells, 600 nM adenosine)
experimentalSetup: @ 10000 nM, marked *
assayMetric: *A2B cAMP % inh. @ 10000 nM (% inh. @ 10000 nM*)

compound	systemName	displayUnit	reported
COc1ccc2c(c1)nc(N)n1nc([C@@H]3C[C@H](C)CN(c4cn([C@@H](C)[C@H](C)O)nc4C)C3)nc21 [Example 219D]	human A2b adenosine receptor (Homo sapiens (Human), UniProt P29275)	% inh. @ 10000 nM*	33
COc1cccc2c1nc(N)n1nc([C@@H]3C[C@@H](F)CN(c4cnn(C5CC5)c4)C3)nc21 [Example 148B]	human A2b adenosine receptor (Homo sapiens (Human), UniProt P29275)	% inh. @ 10000 nM*	36
COc1cccc2c1nc(N)n1nc(C3CCCN(c4cnn(C5CC5)c4)C3C)nc21 (stereo not shown)	human A2b adenosine receptor (Homo sapiens (Human), UniProt P29275)	% inh. @ 10000 nM*	30
COc1cccc2c1nc(N)n1nc([C@@H]3CCCN(c4cnccc4C(F)(F)F)C3)nc21	human A2b adenosine receptor (Homo sapiens (Human), UniProt P29275)	% inh. @ 10000 nM*	18
COc1ccc2c(c1)nc(N)n1nc([C@H]3C[C@H](C(F)(F)F)CN(c4cnn(CC(C)(C)O)c4)C3)nc21 (single isomer, unassigned) [Example 218A]	human A2b adenosine receptor (Homo sapiens (Human), UniProt P29275)	% inh. @ 10000 nM*	9
COc1cccc2c1nc(N)n1nc(C3CN(c4cnn(C5CC5)c4)CC(F)(F)C3)nc21 (single isomer, unassigned) [Example 154B]	human A2b adenosine receptor (Homo sapiens (Human), UniProt P29275)	% inh. @ 10000 nM*	13
COc1cccc2c1nc(N)n1nc([C@@H]3CCCN(c4nccc(C(F)(F)F)n4)C3)nc21	human A2b adenosine receptor (Homo sapiens (Human), UniProt P29275)	% inh. @ 10000 nM*	10

----------
systemName: human A2a adenosine receptor (Homo sapiens (Human), UniProt P29274)
assayName: A2a receptor affinity radioligand binding assay ([3H] SCH58261, membranes from HEK293 or CHO cells)
experimentalSetup: unstarred values: radioligand binding
pIC50: −log10 of the molar value.
assayMetric: pIC50

compound	systemName	reported
COc1cccc2c1nc(N)n1nc([C@@H]3CCCN(c4ncn(CC(C)(C)O)n4)C3)nc21	human A2a adenosine receptor (Homo sapiens (Human), UniProt P29274)	10.00
COc1cccc2c1nc(N)n1nc([C@@H]3CCCN(c4cnn([C@H]5CCN(C)C5)c4)C3)nc21	human A2a adenosine receptor (Homo sapiens (Human), UniProt P29274)	9.05
COc1cccc2c1nc(N)n1nc([C@@H]3CCCN(c4cnn(C)c4)C3)nc21	human A2a adenosine receptor (Homo sapiens (Human), UniProt P29274)	9.00
COc1cccc2c1nc(N)n1nc([C@@H]3CCCN(c4cnn([C@@H]5CCC[C@H](O)[C@@]5(C)O)c4)C3)nc21	human A2a adenosine receptor (Homo sapiens (Human), UniProt P29274)	8.70
Cn1cc(N2CCCC(c3nc4c5cccc(Cl)c5nc(N)n4n3)C2)cn1 (single isomer, unassigned) [Example 132B]	human A2a adenosine receptor (Homo sapiens (Human), UniProt P29274)	8.41
COc1ccc2c(c1)nc(N)n1nc([C@@H]3CCCN(c4cnn(C5CC5)c4)C3)nc21	human A2a adenosine receptor (Homo sapiens (Human), UniProt P29274)	8.40
COc1cccc2c1nc(N)n1nc([C@@H]3CCCN(c4ncn(C5CCOCC5)n4)C3)nc21	human A2a adenosine receptor (Homo sapiens (Human), UniProt P29274)	9.52
